Assign relative viability to each entry below.
# Test system: NCI-H1650
# assay summary: relative viability (nuclei count vs DMSO), 5 days (fraction); higher = more cells survive
# protocol conditions: first compound 0.005 µM
Give bare numbers.

input: Look up relative viability of COc1cc2nccc(Oc3ccc(NC(=O)Nc4cc(C)on4)c(Cl)c3)c2cc1OC [Tivozanib] + Nc1ncn([C@H]2C[C@H](O)[C@@H](CO)O2)c(=O)n1 [Decitabine] (partner 2 µM) and report it.
output: 0.412

input: Look up relative viability of COc1cc2nccc(Oc3ccc(NC(=O)Nc4cc(C)on4)c(Cl)c3)c2cc1OC [Tivozanib] + CS(=O)(=O)N1CCN(Cc2cc3nc(-c4cccc5[nH]ncc45)nc(N4CCOCC4)c3s2)CC1 [Pictilisib] (partner 1 µM) and report it.
output: 0.561

input: Look up relative viability of Nc1ccn([C@@H]2O[C@H](CO)[C@@H](O)[C@@H]2O)c(=O)n1 [Cytarabine] + CS(=O)(=O)CCNCc1ccc(-c2ccc3ncnc(Nc4ccc(OCc5cccc(F)c5)c(Cl)c4)c3c2)o1 [Lapatinib] (partner 2 µM) and report it.
output: 0.807

Please find the next compound below.
input: Look up relative viability of COc1cc2nccc(Oc3ccc(NC(=O)Nc4cc(C)on4)c(Cl)c3)c2cc1OC [Tivozanib] + CC(=O)Nc1cccc(-n2c(=O)n(C3CC3)c(=O)c3c(Nc4ccc(I)cc4F)n(C)c(=O)c(C)c32)c1 [Trametinib] (partner 0.02 µM) and report it.
output: 0.592
